Assay: Quantitative High-Throughput drug screen in 47 multiple myeloma cell lines against the NCATS MIPE library collection: Delta47_JCRB cell viability assay (AID 1918925; further: nearly all actives have a fitted effect of over 45% in size)
Conditions: Delta47 myeloma viability, CellTiter-Glo ATP, 48 h; series mostly up to 45.8 µM
Inconclusive results are not listed. The source made the active and inactive calls. The call rests on the fitted dose curve; in most records, active means well fitted cell-killing curve with a large enough effect; inconclusive means small, poorly fitted or top-dose-only effect, or effect the other way; inactive means no such curve, though single readings can be large or run the other way.
Returns: one label drawn from true (active), false (inactive)

molecule	category.label
c1cc(CN2CCCNCCNCCCNCC2)ccc1CN1CCCNCCNCCCNCC1	false
CC(C=CC1=C(C)CCCC1(C)C)=CC=CC(C)=CC(=O)Nc1ccc(O)cc1	true
CCOC(=O)C=C[C@H](C[C@@H]1CCNC1=O)NC(=O)[C@@H](CC(=O)[C@@H](NC(=O)c1cc(C)on1)C(C)C)Cc1ccc(F)cc1	false
Nc1ccc(C(=O)Nc2cccc(-c3nc(N4CCOCC4)c4oc5ncccc5c4n3)c2)cn1	true
COC(=O)[C@@H]1[C@H]2C[C@@H]3c4[nH]c5ccccc5c4CCN3C[C@@H]2CC[C@@H]1O	false
OCc1ccccc1O[C@@H]1O[C@H](CO)[C@H](O)[C@H](O)[C@H]1O	true
COc1ccc2c(c1OC)C(=O)OC2[C@H]1c2c(cc3c(c2OC)OCO3)CCN1C (stereo partly drawn)	true
CS(=O)(=O)N1CCc2c(-c3cnc(N)nc3)nc(N3CCOCC3)nc21	true
C#C[C@]1(O)CC[C@@H]2[C@@H]3CCc4cc(O)ccc4[C@H]3CC[C@@]21C	true
O=C(Nc1nnc(-c2ccco2)o1)c1cc(-c2ccccc2)nc2ccccc12	true

Req: State the result this test recorded for C[C@H](NCc1ccc(OCc2cccc(F)c2)cc1)C(N)=O .
Resp: true

Req: For CC(C)N(CC[C@H](c1ccccc1)c1cc(CO)ccc1O)C(C)C then?
Resp: false

----------
Experiment: Quantitative High-Throughput drug screen in 47 multiple myeloma cell lines against the NCATS MIPE library collection: OCIMY5_PLB cell viability assay (AID 1918988); further: nearly all actives have a fitted effect of over 65% in size
Settings: OCI-MY5 myeloma viability, ATP luminescence, 48 h; series mostly up to 45.8 µM
Records with an inconclusive call do not appear. The source made the active and inactive calls. The call rests on the fitted dose curve; in most records, active means well fitted cell-killing curve with a large enough effect; inconclusive means small, poorly fitted or top-dose-only effect, or effect the other way; inactive means no such curve, though single readings can be large or run the other way.
The reply should be one of these categories: active, inactive

These solved cases illustrate the format of a correct answer.
compound	category.label
Cc1cc(Nc2ncc3c(n2)N(C)C(=O)N(c2cc(NC(=O)c4cccc(C(F)(F)F)c4)ccc2C)C3)n(C)n1	active
CCC(C(=O)O)C1CCC(C)C(C(C)C(O)C(C)C(=O)C(CC)C2OC3(C=CC(O)[C@@]4(CC[C@](C)(C5CC[C@@](O)(CC)C(C)O5)O4)O3)C(C)CC2C)O1 (some centres undefined)	active
Cn1cc(C[C@@H](N)C(=O)O)c2ccccc21	inactive
CC(=O)OCC(=O)[C@@]1(O)CC[C@H]2[C@@H]3CCC4=CC(=O)CC[C@]4(C)[C@@H]3C(=O)C[C@@]21C	inactive

Req: Assay outcome for C#C[C@]1(O)CC[C@@H]2[C@@H]3CCc4cc(O)ccc4[C@H]3CC[C@@]21C : what was it?
Resp: active

Req: Same question, O=C(CCCCCCC(=O)Nc1cccnc1)NO this time
Resp: active

Req: How about this compound: O=[N+]([O-])c1cn2c(n1)OC[C@@H](OCc1ccc(OC(F)(F)F)cc1)C2
Resp: inactive

Req: Now the compound COc1cc2c(Nc3ccc(Cl)c(Cl)c3F)ncnc2cc1OCC1C[C@@H]2CN(C)C[C@H]2C1
Resp: active

Req: Let us now turn to O=C1NC(=O)C(=Cc2ccc3nccc(-c4ccncc4)c3c2)S1
Resp: active

Just for reference, PubChem BioAssay (NCATS) is where these values come from.
